Tested on: MS2 coat protein
assay info: apparent KD of MS2 coat protein; designed switch direction (-1 OFF switch, 1 ON switch): 1; higher = weaker reporter binding
measurement setup: input ligand: none
We'd kindly ask you to apply these apparent KD of MS2 coat protein classes: bucket 1 = under 50 nM, bucket 2 = from 50 nM up to 400 nM, bucket 3 = 400 nM and over

Req: Bin? UUAAUAAUGAUAGGAUAUACAUGAGGAAUUCUCGUAGAAGGAUCAUGACAUGAGGAUCACCCAUGUAACGCUCGAAAGAGCGUA [Mat - Same State NG 1 - JL mod - D39] (Eterna round: R96, puzzle: Same State NG 1)
Resp: bucket 3

Req: Further, for AAACAUGAGCGAGGAUAUGCAGAGGAUCACCCUGUAGAAGGCGCAUGUAAAACAACAUGAGGAUCACCCAUGUCAUGUACAUGA (Eterna round: R96, puzzle: Same State NG 1) ?
Resp: bucket 1

Req: # iterate: GCUACAUGAGGAUCACCCAUGUGUGUGUGGGAGUGAGUGGCUUAGGAUAUCUAUGAUUUUAGUUGAGAGAAGGAGGAUUGCUGU [SS-NG3-LRO09] (Eterna round: R96, puzzle: Same State NG 3)
Resp: bucket 2

Req: Moving on to CGGGUGAUCGUAGGAUAUCUAGGAUAUGAACGAGGAUCACCCGAGCAGCAUCAGCGCAUCAGAGGAGAGAAGGACGAUGAUGCG [pwkr ssNG2 2F5 2FMN.19] (Eterna round: R96, puzzle: Same State NG 2)
Resp: bucket 1

Req: Another: GAGCCAGUCCGAGGAUAUUCACAUGAGGAUCACCCAUGUAGGCUCAGAAAAGAAAAGGAGCCUUGGGAGAAGGCGGACUGGCUC [Xeonanisa<<8] (Eterna round: R96, puzzle: Same State NG 2)
Resp: bucket 1

Req: Moving on to CCCUCACAUGAGGAUCACCCAUGUCCUAGCAGGUCAGGAUAUAGCCCGCAUCCGCUGCGGCUAGAAGGGACAGCUG [JR_SS001_Sub610] (Eterna round: R96, puzzle: Same State 1)
Resp: bucket 2

Req: Now this one: GCGGAGAGGUAAGGAUAUUCAUGGCAUAGACAUGAGGAUCACCCAUGUAGGAGACGAAUUAGAAGGAAGAAGGUACCGGGACGC [AK SSNG2-V2-18.1] (Eterna round: R96, puzzle: Same State NG 2)
Resp: bucket 2

Req: What about this sequence? GGAGCCAGCACCGAGGAUAUUCAUAUUAAAACAUGAGGAUCACCCAUGUAGGCCAGAAGGCCUUGGGAGAAGGCGGACUGGCUCG [Xeonanis - 11] (Eterna round: R96, puzzle: Same State 2)
Resp: bucket 2

Req: Follow-up entry: ACAUGAGGAUCACCCAUGUAUAGAUUUGAAUCUUAAGUUACGUAGGAUAUCGUGUUUAGUAUCAUCGAGAAGGACGAUCUGAUA [JR_SSNG3_Sub067] (Eterna round: R96, puzzle: Same State NG 3)
Resp: bucket 1

Req: Another: GCCGAACAUGAGGAUCACCCAUGUCUGGGUAAUCAAGGAUAUGGGAAGGCUUUGCCAUGACCAGAAGGUGGUUAUC [Zari] (Eterna round: R96, puzzle: Same State 1)
Resp: bucket 2

Req: Param item: UAGAUUCACGUAGGAUAUCGACCUACAUGAGGAUCACCCAUGUUUUUGAAUAGAUUUUUUAGUUACGAGAAGGACGUUAUGUAU [JR_SSNG2_Sub063] (Eterna round: R96, puzzle: Same State NG 2)
Resp: bucket 3

Req: Would you mind doing AUAAACAGGCUAGGAUAUCCGGAAACUACAGGGCACGACCCUGUGGACAUGAGGAUCACCCAUGUGGAGAAGGAGCCACAUGAA [Edlatibi] (Eterna round: R96, puzzle: Same State NG 2) as well?
Resp: bucket 2

Req: Next entry: GUAGCAUACCGAGGAUAUUCAAAUUAACAUGAGGAUCACCCAUGUAGGCCACAUUAGUGGCCUUGGGAGAAGGCGGAAUGCUAC [Xeonanis - 20 Mod39] (Eterna round: R96, puzzle: Same State NG 2)
Resp: bucket 2

Req: Further, for GCUCGAUGUGCUGUUUACAUGAGGAUCACCCAUGUAGAUGCGGAGGAUAUCUACGUGCUUUAUGUAGAGAAGGCCGUAUCGAGC [SameState NG3 #82] (Eterna round: R96, puzzle: Same State NG 3) ?
Resp: bucket 1

Req: Same lookup for UUAAUGAAGUAAGGAUAUACAUGAGGAUCACUCGUAGAAGGUACUAUACAUGAGGAUCACCCAUGUUCCGGUCCGUAGACUGGA [JL SSNG1 1.02] (Eterna round: R96, puzzle: Same State NG 1) , please.
Resp: bucket 3

Req: Here is the next sequence: AUUUUUAAUGCAGGAUAUGAUUAACAUGAGGAUCACCCAUGUGGUGUUGUGAGUAAGGAGAGUGAUCAGAAGGGCAUUUUUUUU [JMF's solution 30] (Eterna round: R96, puzzle: Same State NG 2)
Resp: bucket 3

Req: Param item: UUAAUGAUGAUAGGAUAUACAUGAGGAAUUCUCGUAGAAGGAUCAUGACAUGAGGAUCACCCAUGUAUCGCUCGAUAGAGCGUA [Mat - Same State NG 1 - JL mod - D34] (Eterna round: R96, puzzle: Same State NG 1)
Resp: bucket 2

Req: And for GGUCGGAACCACAUGAGGAUCACCCAUGUUCCGGAAACGGCACAGGAUAUCUGUCCGAAAAGGUCAGAGAAGGGUGAACCGACC [Fiskers NG3ss - 76] (Eterna round: R96, puzzle: Same State NG 3) ?
Resp: bucket 3
